# System: L1210
# Experiment Summary: Inhibitory activity against murine L1210 leukemic cell growth
# Format: functional
# Test Parameters: Mus musculus, read-out: ID50 (the source's name)
Would you mind telling me the reported pIC50 of each entry?
One number for each entry, as −log10 of the molar value.

// worked examples, pIC50 included
| Smiles Entry | Value Reported |
| --- | --- |
| COc1cccc2c1C(=O)c1c(OC)cc(C(Br)Br)cc1C2=O | 6.05 |
| COc1cc(OC)c2c(c1)C(=O)c1cc(CNCCO)cc(OC)c1C2=O | 4.77 |

In the following, a different molecule is considered.
Query `CCNCc1cc(O)c2c(c1)C(=O)c1cccc(O)c1C2=O` on L1210; pIC50 returned: 6.11

Measured values drawn from ChEMBL document CHEMBL1124531 for this set.
